// provenance: patent US12534493B2

# Test system: single-stranded DNA: 5′-d(ACGAGAACATCC)-3′ (SEQ ID NO: 12)
# TEST DESCRIPTION: Melting temperature (Tm) measurement, double strand-forming ability, with single-stranded DNA
# Type: binding
# CONDITION INFO: duplex with single-stranded DNA SEQ ID NO: 12; change per modification vs natural oligonucleotide
Each item that follows carries a reported ΔTm/mod..

Answered cases to consult:
substance="5′-GGATGZZCTCGT-3′: modified oligonucleotide with two consecutive Z modifications (DNA GGATGTTCTCGT; two Z modified nucleotides; misc_difference (6)..(6) ENA; misc_difference (7)..(7) ENA)" result="+3.0 °C"
substance="5′-GGAYGYTCTCGT-3′: modified oligonucleotide with two separated Y modifications (DNA GGATGTTCTCGT; two Y modified nucleotides; misc_difference (4)..(4) LNA; misc_difference (6)..(6) LNA)" result="+3.5 °C"
substance="5′-GGATGXTCTCGT-3′: modified oligonucleotide with one X modification; X not defined in the visible text (DNA GGATGTTCTCGT; DNA oligonucleotide with modified nucleotide X, X not given here, further chemistry not given here)" result="+2.0 °C"
substance="5′-GGATGYTCTCGT-3′: modified oligonucleotide with one Y modification; Y not defined in the visible text (DNA GGATGTTCTCGT; Y modified nucleotide; misc_difference (6)..(6) LNA)" result="+3.0 °C"

Read the next record carefully.
Task: Read the entry 5′-GGATGYYCTCGT-3′: modified oligonucleotide with two consecutive Y modifications (DNA GGATGTTCTCGT; two Y modified nucleotides; misc_difference (6)..(6) LNA; misc_difference (7)..(7) LNA) and write its reported ΔTm/mod..
Result: +3.0 °C

====

Each entry below carries its reported Tm.
# Tested on: single-stranded RNA: 5′-r(ACGAGAACAUCC)-3′ (SEQ ID NO: 11)
# TEST DESCRIPTION: Melting temperature (Tm) measurement, double strand-forming ability, with single-stranded RNA
# Assay type: binding
# CONDITION INFO: duplex with single-stranded RNA SEQ ID NO: 11; 10 mM phosphate buffer (pH7.0), 200 mM NaCl, 2.5 μM each oligonucleotide
Respond with the figure and its unit, in that order.

Task: Give recorded Tm. 5′-GGATGZZCTCGT-3′: modified oligonucleotide with two consecutive Z modifications (DNA GGATGTTCTCGT; two Z modified nucleotides; misc_difference (6)..(6) ENA; misc_difference (7)..(7) ENA)
Result: 64 °C

Task: Please report the measured Tm for 5′-GGATGTTCTCGT-3′: unmodified (natural) oligonucleotide, SEQ ID NO: 1 (unmodified DNA)
Result: 52 °C

Task: Identify measured Tm corresponding to 5′-GGATGYTCTCGT-3′: modified oligonucleotide with one Y modification; Y not defined in the visible text (DNA GGATGTTCTCGT; Y modified nucleotide; misc_difference (6)..(6) LNA)
Result: 58 °C

====

# Test system: single-stranded RNA:5′-r(ACGAGANCAUCC)-3′, N = G
# TEST DESCRIPTION: Tm measurement with single-stranded RNA (base sequence identifying ability), N = G
# Assay type: binding
# CONDITION INFO: mismatch RNA N = G; 10 mM sodium phosphate buffer, 200 mM NaCl
MEASURE NAME: Tm (N = G) (°C)
Please give a number only; it is taken to be in °C.

substance="5′-GGATGZTCTCGT-3′: modified oligonucleotide with one Z modification; Z not defined in the visible text (DNA GGATGTTCTCGT; Z modified nucleotide; misc_difference (6)..(6) ENA)" measure_name="Tm (N = G)" unit_of_measurement=°C recorded_number=54

Task: Hello, please tell me recorded Tm (N = G) for this one: 5′-GGATGYTCTCGT-3′: modified oligonucleotide with one Y modification; Y not defined in the visible text (DNA GGATGTTCTCGT; Y modified nucleotide; misc_difference (6)..(6) LNA)
Result: 53

Task: Specify reported Tm (N = G) for the substance shown: 5′-GGATGXTCTCGT-3′: modified oligonucleotide with one X modification; X not defined in the visible text (DNA GGATGTTCTCGT; DNA oligonucleotide with modified nucleotide X, X not given here, further chemistry not given here)
Result: 53

Task: Specify reported Tm (N = G) for the substance shown: 5′-GGATGTTCTCGT-3′: unmodified (natural) oligonucleotide, SEQ ID NO: 1 (unmodified DNA)
Result: 48
